Biological target: CYP2C19 (Homo sapiens, UniProt P33261)
Sequence (P33261 whole entry): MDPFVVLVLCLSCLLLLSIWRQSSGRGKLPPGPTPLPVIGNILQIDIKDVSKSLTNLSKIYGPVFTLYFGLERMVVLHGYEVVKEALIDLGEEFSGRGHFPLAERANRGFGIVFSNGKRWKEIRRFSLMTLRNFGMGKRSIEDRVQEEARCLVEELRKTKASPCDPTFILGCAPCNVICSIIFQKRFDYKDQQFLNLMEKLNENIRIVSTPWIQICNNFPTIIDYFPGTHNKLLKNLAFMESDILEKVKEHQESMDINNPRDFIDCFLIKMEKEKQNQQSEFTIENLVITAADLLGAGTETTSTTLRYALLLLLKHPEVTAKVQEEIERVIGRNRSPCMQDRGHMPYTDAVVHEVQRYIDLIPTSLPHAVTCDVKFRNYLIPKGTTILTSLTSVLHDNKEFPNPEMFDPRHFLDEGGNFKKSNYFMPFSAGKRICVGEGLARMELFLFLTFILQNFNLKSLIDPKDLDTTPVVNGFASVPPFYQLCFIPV
Assay: CYP phenotyping, CYP bactosomes
Settings: E. coli CYPEX membranes, 100 pmol/mL CYP
property-measured: half-life, CYP isoform 2C19 (h)
Please respond with the number in h and leave the unit unwritten.

Previously resolved entries follow.
CN(C)CCc1c[nH]c2ccccc12 [DMT in SPL028ii] | 2.7
[2H]C([2H])(Cc1c[nH]c2ccccc12)N(C)C [SPL028i] | 3
[2H]C([2H])(Cc1c[nH]c2ccccc12)N(C)C [SPL028ii] | 2.93

Input: // Input: CN(C)CCc1c[nH]c2ccccc12 [DMT in SPL028i] . Output its half-life, CYP isoform 2C19 only.
Output: 2.93

###

Tested on: human (mixed gender) hepatocytes
Assay: In vitro intrinsic clearance in human hepatocytes with and without MAO-A/B inhibitor combination (first experiment)
Conditions: human hepatocytes (Table 5)
property-measured: % change in half-life, MAO inhibitors vs no inhibitors (%)
Please respond with the number in % and leave the unit unwritten.

NCCc1c[nH]c2ccc(O)cc12 [Serotonin, reference compound] | 73.75
CN(C)CCc1c[nH]c2ccccc12 [SPL026, N,N-dimethyltryptamine, reference compound] | 3.82
[2H]C([2H])(Cc1c[nH]c2ccccc12)N(C)C [SPL028i] | −5.33

Input: // Input: [2H]C([2H])(Cc1c[nH]c2ccccc12)N(C)C [SPL028ii] . Output its % change in half-life, MAO inhibitors vs no inhibitors only.
Output: 14.69

Input: // Input: [2H]C([2H])(Cc1c[nH]c2ccccc12)N(C)C [SPL028vi] . Output its % change in half-life, MAO inhibitors vs no inhibitors only.
Output: 20.55

Input: // Input: [2H]C([2H])(Cc1c[nH]c2ccccc12)N(C)C [SPL028v] . Output its % change in half-life, MAO inhibitors vs no inhibitors only.
Output: 11.47

Input: // Input: [2H]C([2H])(Cc1c[nH]c2ccccc12)N(C)C [SPL028iv] . Output its % change in half-life, MAO inhibitors vs no inhibitors only.
Output: 31.74
